Experiment: Inhibition of PrPSc formation in mouse SMB cells at 10 uM relative to control
Format: functional
property.measured: inhibition at 10 µM

structure.notation	result
N#Cc1c(N)nc(Sc2ccc(O)cc2)c(C#N)c1-c1ccc(Cl)cc1	90%
COC(=O)c1ccc(-c2c(C#N)c(N)nc(Sc3ccc(Cl)cc3)c2C#N)cc1	73%
N#Cc1c(N)nc(Sc2ccccc2O)c(C#N)c1-c1ccc(Cl)cc1	76%
N#Cc1c(N)nc(Sc2ccc(Cl)cc2)c(C#N)c1-c1ccco1	73%

Each compound below has a reported value. Please supply its inhibition at 10 µM.
1. N#Cc1c(N)nc(Sc2ccc(Cl)cc2)c(C#N)c1-c1ccc2c(c1)OCO2
2. N#Cc1c(N)nc(Sc2cccc(O)c2)c(C#N)c1-c1ccc2c(c1)OCO2
3. COC(=O)c1cccc(Sc2nc(N)c(C#N)c(-c3ccc4c(c3)OCO4)c2C#N)c1
4. N#Cc1c(N)nc(Sc2cccc(O)c2)c(C#N)c1-c1ccc(Cl)cc1
5. COC(=O)c1ccc(-c2c(C#N)c(N)nc(SCc3ccccc3)c2C#N)cc1
6. COC(=O)c1cccc(Sc2nc(N)c(C#N)c(-c3cccs3)c2C#N)c1
7. N#Cc1c(N)nc(SCc2ccccc2)c(C#N)c1-c1cccc(O)c1
8. N#Cc1c(N)nc(Sc2cccc(O)c2)c(C#N)c1-c1cccs1

Solution:
1: 67%; 2: 75%; 3: 75%; 4: 73%; 5: 107%; 6: 87%; 7: 113%; 8: 77%

Each compound below has a reported value. Please supply its inhibition at 10 µM.
1. COC(=O)c1ccc(-c2c(C#N)c(N)nc(Sc3cccc(O)c3)c2C#N)cc1
2. N#Cc1c(N)nc(Sc2ccccc2)c(C#N)c1-c1ccc2c(c1)OCO2
3. N#Cc1c(N)nc(Sc2ccc(Cl)cc2)c(C#N)c1-c1ccc(Cl)cc1
4. N#Cc1c(N)nc(Sc2ccc(O)cc2)c(C#N)c1-c1cccs1

Solution:
1. 77%
2. 86%
3. 72%
4. 86%

Each compound below has a reported value. Please supply its inhibition at 10 µM.
1. N#Cc1c(N)nc(SCc2ccccc2)c(C#N)c1-c1ccco1
2. N#Cc1c(N)nc(Sc2cccc(Cl)c2)c(C#N)c1-c1ccco1
3. N#Cc1c(N)nc(Sc2cccc(Cl)c2)c(C#N)c1-c1ccc(Cl)cc1
4. COC(=O)c1cccc(Sc2nc(N)c(C#N)c(-c3ccco3)c2C#N)c1

Solution:
111%
94%
71%
69%

Exercise: Output measured inhibition at 10 µM for this item: N#Cc1c(N)nc(Sc2ccc(Cl)cc2)c(C#N)c1-c1ccc2c(c1)OCCO2
Solution: 68%

----------
Biological target: UniProt P04156
Assay: Binding affinity to human prion protein by surface plasmon resonance assay
Task for the reader: assign each of the following molecules its reported RUmax.
Answers are plain numbers, in %.

For orientation, consider the following solved cases.
structure.notation	unit.annotation	RUmax
N#Cc1c(N)nc(Sc2cccc(Cl)c2)c(C#N)c1-c1ccc2c(c1)OCCO2	%	11.3
COC(=O)c1ccc(-c2c(C#N)c(N)nc(SCc3ccccc3)c2C#N)cc1	%	9.3
COC(=O)c1cccc(Sc2nc(N)c(C#N)c(-c3ccc4c(c3)OCO4)c2C#N)c1	%	156
N#Cc1c(N)nc(Sc2ccc(Cl)cc2)c(C#N)c1-c1ccco1	%	37
N#Cc1c(N)nc(Sc2ccc(Cl)cc2)c(C#N)c1-c1cccs1	%	8.8

Each molecule below has a reported value. Please supply its RUmax.
1. N#Cc1c(N)nc(Sc2ccc(O)cc2)c(C#N)c1-c1ccco1
2. N#Cc1c(N)nc(SCc2ccccc2)c(C#N)c1-c1cccs1
3. N#Cc1c(N)nc(Sc2ccccc2O)c(C#N)c1-c1cccs1
4. COC(=O)c1ccc(-c2c(C#N)c(N)nc(Sc3ccc(Cl)cc3)c2C#N)cc1
5. N#Cc1c(N)nc(SCc2ccccc2)c(C#N)c1-c1ccc(Cl)cc1
6. N#Cc1c(N)nc(Sc2ccc(Cl)cc2)c(C#N)c1-c1cccc(O)c1
7. COC(=O)c1cccc(Sc2nc(N)c(C#N)c(-c3ccco3)c2C#N)c1

Solution:
21.9
55.5
16.9
10.6
8.6
15.7
26.9

Each molecule below has a reported value. Please supply its RUmax.
1. COC(=O)c1ccc(Sc2nc(N)c(C#N)c(-c3ccc4c(c3)OCCO4)c2C#N)cc1
2. COC(=O)c1ccc(-c2c(C#N)c(N)nc(Sc3cccc(O)c3)c2C#N)cc1
3. COC(=O)c1ccc(-c2c(C#N)c(N)nc(Sc3ccccc3O)c2C#N)cc1

Solution:
1: 6; 2: 8.4; 3: 5.7
